# Test system: Heart
# Method Summary: Positive inotropic activity in Sprague-Dawley rat heart assessed as left ventricular diastolic pressure at 100 umol/L (reference value: -0.04 +/- 0.33 to -0.67 +/- 0.69 mmHg)
# Type: functional, Heart left ventricle
Listing: Activity of selected compounds
Metric Name: Activity (mmHg)

• Cc1nc(CO)c(C)nc1CO = -0.34
• CC(=O)NC(CSCc1nc(C)c(CO)nc1C)C(=O)O (stereo in doubt; 4) = -0.59
• Cc1nc(CO[C@@H]2O[C@H](C(=O)O)[C@@H](O)[C@H](O)[C@H]2O)c(C)nc1CO (stereo in doubt; 2) = -0.97
• Cc1nc(CSCC(N)C(=O)O)c(C)nc1CO (stereo in doubt; 3) = -0.24
• Cc1nc(C(=O)O)c(C)nc1CO = -0.38

---

Listing: Activity of selected molecules
# Test system: Heart
# Method Summary: Positive inotropic activity in Sprague-Dawley rat heart assessed as heart rate at 10 umol/L (reference value: 218.67 +/- 20.62 to 260 +/- 21.81 bpm)
# Type: functional
Metric Name: Activity (bpm)

• Cc1nc(CO[C@@H]2O[C@H](C(=O)O)[C@@H](O)[C@H](O)[C@H]2O)c(C)nc1CO (stereo in doubt; 2) = 221.22
• Cc1nc(C(=O)O)c(C)nc1CO = 252.83
• CC(=O)NC(CSCc1nc(C)c(CO)nc1C)C(=O)O (stereo in doubt; 4) = 231.5
• Cc1nc(CO)c(C)nc1CO = 245.44
• Cc1nc(CSCC(N)C(=O)O)c(C)nc1CO (stereo in doubt; 3) = 227.72

---

# System: Heart
# Method Summary: Positive inotropic activity in Sprague-Dawley rat heart assessed as left ventricular systolic pressure at 1 umol/L (reference value: 20.7 +/- 7.61 to 25.86 +/- 9.41 mmHg)
# Assay type: functional, Heart left ventricle
Listing: Activity of selected molecules
Metric Name: Activity (mmHg)

* Cc1nc(CSCC(N)C(=O)O)c(C)nc1CO (stereo in doubt; 3) | 25.02
* Cc1nc(CO[C@@H]2O[C@H](C(=O)O)[C@@H](O)[C@H](O)[C@H]2O)c(C)nc1CO (stereo in doubt; 2) | 22.35
* CC(=O)NC(CSCc1nc(C)c(CO)nc1C)C(=O)O (stereo in doubt; 4) | 21.22
* Cc1nc(C(=O)O)c(C)nc1CO | 26.98

FYI, the data here is from ChEMBL document CHEMBL3751747.
